List of IC50 values.
# EXPERIMENTAL_TARGET: Trypsin (Homo sapiens, UniProt P07477+P07478+P35030)
# TEST_METHOD_NOTES: Inhibition of human trypsin using Nalpha-benzoyl-DL-R-pNA as substrate preincubated for 15 mins followed by substrate addition and measured every 15 secs for 5 mins
# Format: protein assay
ASSAY_READOUT: IC50

> print(dat)
                                   compound  assay.readout    result
1  CCC(C)C(NC(=O)[C@@H]1CCCN1C(=O)[C@@H](NC(=O)OC(C)(C)C)C(C)(C)C)C(=O)c1nc2ccccc2s1 (mixture of isomers)           IC50  > 500 µM
2  CCC(=O)C(=O)C(NC(=O)[C@@H]1CCCN1C(=O)[C@@H](NC(=O)OC(C)(C)C)C(C)C)C(C)C (mixture of isomers)           IC50  > 500 µM
3  CCCC(NC(=O)[C@@H]1CCCN1C(=O)[C@@H](NC(=O)OC(C)(C)C)C(C)C)P(=O)(Oc1ccccc1)Oc1ccccc1 (mixture of isomers)           IC50  > 500 µM

====

# Tested on: Chlamydia trachomatis 434/Bu
# TEST_METHOD_NOTES: Potency index, ratio of JO146 IC50 to compound IC50 for inhibition of recombinant chlamydia trachomatis serovar L2 434/Bu/ATCC VR-902B HtrA expressed in Escherichia coli BL21(DE3) using MeOCoum-ENLHLPLPIIF-NH-DNP as fluorescent mimotope preincubated for 20 mins followed by mimotope addition in presence of fluorophore 7-methoxycoumarin-4-acetic acid by plate reader based fluorescence assay
Activity calls are given as the source filed them. The calls are words filed in the database; no cut-off is given here. Square brackets hold non-standard residues; d marks the D form. Peptide text beside a SMILES is read from it. * marks the point of attachment. ξ: configuration not given here. Boc = CC(C)(C)OC(=O)*; ξV = CC(C)C(N)C(=O)O
ASSAY_READOUT: Ratio IC50

> print(dat)
                                   compound    result
1  CCCC(NC(=O)[C@@H]1CCCN1C(=O)[C@@H](NC(=O)OC(C)(C)C)C(C)C)P(=O)(Oc1ccccc1)Oc1ccccc1 (mixture of isomers)  inactive
2  CC(C)C(NC(=O)[C@@H]1CCCN1C(=O)[C@@H](NC(=O)OC(C)(C)C)C(C)C)C(=O)N(C)C (stereo partly drawn) (Boc-Val-Pro-[ξV]-NMe2)  inactive
3  CC(C)C(NC(=O)[C@@H]1CCCN1C(=O)[C@@H](NC(=O)OC(C)(C)C)C(C)C)C(=O)c1nc2ccccc2s1 (mixture of isomers)      1.06

====

# System: Chlamydia trachomatis 434/Bu
# TEST_METHOD_NOTES: Potency index, ratio of JO146 IC50 to compound IC50 for inhibition of recombinant chlamydia trachomatis serovar L2 434/Bu/ATCC VR-902B HtrA expressed in Escherichia coli BL21(DE3) using MeOCoum-ENLHLPLPIIF-NH-DNP as fluorescent mimotope preincubated for 20 mins followed by mimotope addition in presence of fluorophore 7-methoxycoumarin-4-acetic acid by plate reader based fluorescence assay
Calls of active or inactive are those of the source. The calls are words filed in the database; no cut-off is given here.
ASSAY_READOUT: Ratio IC50

> print(dat)
                                   compound    result
1  CC(C)C(NC(=O)[C@@H]1CCCN1C(=O)[C@@H](NC(=O)OC(C)(C)C)C(C)C)C(=O)C(=O)C1CC1 (mixture of isomers)  inactive
2  CC(C)C(NC(=O)[C@@H]1CCCN1C(=O)[C@@H](NC(=O)OC(C)(C)C)C(C)(C)C)P(=O)(Oc1ccccc1)Oc1ccccc1 (mixture of isomers)      33.3
3  CC(C)[C@H](NC(=O)OC(C)(C)C)C(=O)N1CCC[C@H]1C(=O)NC(C(C)(C)C)P(=O)(Oc1ccccc1)Oc1ccccc1 (mixture of isomers)  inactive
4  CCN(C)C(=O)C(NC(=O)[C@@H]1CCCN1C(=O)[C@@H](NC(=O)OC(C)(C)C)C(C)C)C(C)C (stereo partly specified)  inactive
5  CC(C)C(NC(=O)[C@@H]1CCCN1C(=O)[C@@H](NC(=O)OC(C)(C)C)C(C)C)C(=O)c1nccs1 (mixture of isomers)  inactive
6  CC(C)C(CO)NC(=O)[C@@H]1CCCN1C(=O)[C@@H](NC(=O)OC(C)(C)C)C(C)C (mixture of isomers)  inactive

====

We begin with a simple list: items and their reported IC50.
# EXPERIMENTAL_TARGET: Trypsin (Homo sapiens, UniProt P07477+P07478+P35030)
# TEST_METHOD_NOTES: Inhibition of human trypsin using Nalpha-benzoyl-DL-R-pNA as substrate preincubated for 15 mins followed by substrate addition and measured every 15 secs for 5 mins
# Assay type: protein assay
ASSAY_READOUT: IC50

> print(dat)
                                   compound    result
1  CC(C)C(NC(=O)[C@@H]1CCCN1C(=O)[C@@H](NC(=O)OC(C)(C)C)C(C)C)C(=O)C(=O)C1CC1 (mixture of isomers)  > 500 µM
2  CC[C@H](C)[C@H](NC(=O)OC(C)(C)C)C(=O)N1CCC[C@H]1C(=O)NC(C(C)C)P(=O)(Oc1ccccc1)Oc1ccccc1 (mixture of isomers)  > 500 µM
3  CC(C)[C@H](NC(=O)OC(C)(C)C)C(=O)N1CCC[C@H]1C(=O)NC(C(C)(C)C)P(=O)(Oc1ccccc1)Oc1ccccc1 (mixture of isomers)  > 500 µM

====

# key: entry, value: IC50
# EXPERIMENTAL_TARGET: Neutrophil elastase (Homo sapiens, UniProt P08246)
# Sequence (P08246 whole entry): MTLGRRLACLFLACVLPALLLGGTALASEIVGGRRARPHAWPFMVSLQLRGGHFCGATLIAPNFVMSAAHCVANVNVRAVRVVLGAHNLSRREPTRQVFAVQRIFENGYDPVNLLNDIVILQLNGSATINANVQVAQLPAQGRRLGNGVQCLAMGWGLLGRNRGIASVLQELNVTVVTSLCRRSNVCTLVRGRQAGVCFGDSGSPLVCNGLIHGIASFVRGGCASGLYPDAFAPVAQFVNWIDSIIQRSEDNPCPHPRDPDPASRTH
# TEST_METHOD_NOTES: Inhibition of human neutrophil elastase using AAPV-pNA as substrate preincubated for 15 mins followed by substrate addition and measured every 15 secs for 5 mins
ASSAY_READOUT: IC50

> print(dat)
                                   compound       result
1  CC(C)C(NC(=O)[C@@H]1CCCN1C(=O)[C@@H](NC(=O)OC(C)(C)C)C(C)(C)C)P(=O)(Oc1ccccc1)Oc1ccccc1 (mixture of isomers)       680 nM
2  CCCC(NC(=O)[C@@H]1CCCN1C(=O)[C@@H](NC(=O)OC(C)(C)C)C(C)C)P(=O)(Oc1ccccc1)Oc1ccccc1 (mixture of isomers)       680 nM
3  CC(C)C(NC(=O)[C@@H]1CCCN1C(=O)[C@@H](NC(=O)OC(C)(C)C)C(C)C)P(=O)(Oc1ccccc1)Oc1ccccc1 (stereo partly specified)       830 nM
4  CCCC(NC(=O)[C@@H]1CCCN1C(=O)[C@@H](NC(=O)OC(C)(C)C)C(C)C)C(=O)c1nccs1 (stereo partly specified)  > 150000 nM
5  CCC(C)C(NC(=O)[C@@H]1CCCN1C(=O)[C@@H](NC(=O)OC(C)(C)C)C(C)(C)C)P(=O)(Oc1ccccc1)Oc1ccccc1 (mixture of isomers)      2350 nM
6  CC(C)C(NC(=O)[C@@H]1CCCN1C(=O)[C@@H](NC(=O)OC(C)(C)C)C(C)C)C(=O)c1nc2ccccc2s1 (mixture of isomers)      2600 nM
